Values compiled from patent US12208088B2.

molecular target: HPK1 (Homo sapiens (Human), UniProt Q92918)
Sequence (Q92918 1-346 limits assumed): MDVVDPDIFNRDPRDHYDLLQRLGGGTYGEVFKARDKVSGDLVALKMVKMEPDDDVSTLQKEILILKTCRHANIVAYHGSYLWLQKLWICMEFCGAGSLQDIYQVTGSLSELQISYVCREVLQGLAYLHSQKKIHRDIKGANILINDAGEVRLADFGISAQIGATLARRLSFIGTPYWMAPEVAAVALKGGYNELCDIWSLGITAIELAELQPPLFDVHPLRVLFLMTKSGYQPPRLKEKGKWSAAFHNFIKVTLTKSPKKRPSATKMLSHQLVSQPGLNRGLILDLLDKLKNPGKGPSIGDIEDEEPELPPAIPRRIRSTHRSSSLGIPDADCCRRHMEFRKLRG
pKi: −log10 of the molar value.
Kind request: treat 8 as inclusive, so pKi at 8 or higher is TRUE, anything lower is FALSE.

These solved cases illustrate the format of a correct answer.
Cn1cc([C@@H]2CCCCN2C(=O)c2cccc(-c3cnc4c(c3)C3(CC3)CN4)c2F)cn1 (single isomer, unassigned) [Compound 175b] :: FALSE
CS(=O)(=O)c1cccc(-c2cnc3c(c2Cl)C2(CC=CC2)CN3)c1 :: FALSE
CN(C)C(=O)c1cccc2c(-c3cnc4c(c3Cl)C3(CC3)CN4)c[nH]c12 :: FALSE

q: I'd appreciate it if you could say whether "CN(C)C(=O)c1ccc(-c2cnc3c(c2Cl)C2(CC=CC2)CN3)cc1F" has pKi at least equal to 8.
a: FALSE

q: Another compound to look at: "CN(C)C(=O)c1c(N)ccc(-c2cnc3c(c2)C2(CC2)CN3)c1Cl"
a: FALSE

q: Also need CC[C@@H]1C[C@@]12CNc1ncc(-c3ccc(N)c(C(=O)N(C)C)c3F)c(Cl)c12 (relative stereo) [Compound 150c] , thanks.
a: TRUE

###

Heads up, these compounds all have pKi values measured for HPK1 (Homo sapiens (Human), UniProt Q92918).
Lab note: report pKi as minus log10 of the concentration in molar units, number only.

Cn1cccc(-c2cc(-c3cnc4c(c3Cl)C3(CC3)CN4)cc(N)n2)c1=O :: 7.94

q: I have this compound here, "COc1c(-c2ccc(N)c(C(=O)N(C)C)c2F)cnc2c1C1(CC1)CN2" , and I need its recorded pKi.
a: 7.54

q: Another: COc1c(-c2ccc(N)c(C(=O)N(C)C)c2F)cnc2c1[C@]1(CC[C@@H](O)CC1)CN2 [Compound 113a]
a: 7.41

q: Queued: CN(C)C(=O)c1c(N)ccc(-c2cnc3c(c2Cl)[C@]2(CC[C@@H](C(N)=O)C2)CN3)c1F (relative stereo) [Compound 84a]
a: 7.59

q: Record: "CN(C)C(=O)c1cc(N)cc(-c2cnc3c(c2)C2(CC2)CN3)n1"
a: 6.51

q: Next: "N#Cc1ccc2ccn(-c3cnc4c(c3)C3(CC3)CN4)c2c1"
a: 6.23

q: Repeat for the following compound: Cc1noc([C@H]2CC[C@@]3(CNc4ncc(-c5ccc(N)c(C(=O)N(C)C)c5F)c(Cl)c43)C2)n1 (relative stereo) [Compound 108a]
a: 8.08

q: What do you have for "CNS(=O)(=O)c1cccc(-c2cnc3c(c2)C2(CC2)CN3)c1F" ?
a: 6.06

###

Biological target: HPK1 (Homo sapiens (Human), UniProt Q92918)
Test: HPK1 Lantha binding assay ("Lanth")
Conditions: binding assays; Morrison Ki fit
Experimental: Example B2: HPK1 Lantha Binding Assay (“Lanth”) Procedure: I. Compound Dilution: […] For the binding assay, 4 ul 2×HPK1 and Eu-anti-GST antibody were added to each well of the assay plate using a Multidrop reagent dispenser. […] The results of the assay were read using an Envision plate reader with the following parameters: TR_FRET, 340 ex/615 and 665em; 100 usec Delay; and 200 usec integration. […]
Ki listing for selected compounds.
Reply numerically in nM, unit not repeated.

Examples from the recorded data:
Cc1c(CC#N)ccnc1-c1cccc(-c2cnc3c(c2)C2(CC2)CN3)c1 :: 11.7
CN(C)C(=O)c1c(N)ccc(-c2cnc3c(c2Cl)[C@]2(CC[C@H](O)CC2)CN3)c1F [Compound 144b] :: 9.98
CCC[C@H]1C[C@@]12CNc1ncc(-c3ccc(N)c(C(=O)N(C)C)c3F)cc12 (single isomer, unassigned) [Compound 217a] :: 9.4

# input for lookup
q: Query: Ki; subject: COc1c(-c2ccc(N)c(C(=O)N(C)C)c2F)cnc2c1[C@@]1(CN2)C[C@@H]1C (relative stereo) [Compound 165a]
a: 6.41
